meta.source: patent US20260232827A1

System: human myeloid progenitors
Experiment: Colony-forming unit (CFU) assay, target-independent cytotoxicity
Format: cell-based
Details: 336 h, 14 days incubation, read-out: Human IC50, Myeloid progenitors
quantity-kind: IC50 (nM)
Please give a number only; it is taken to be in nM.

Answer with the recorded IC50 of CC[C@@]1(O)C(=O)OCc2c1cc1n(c2=O)Cc2c-1nc1cc(F)c(C)cc1c2CNC(=O)OCCO only.
1.75

====

Tested on: human erythroid progenitors
Experiment: Colony-forming unit (CFU) assay, target-independent cytotoxicity
Assay type: cell-based
Conditions: 336 h, 14 days, read-out: IC50, erythroid progenitors
quantity-kind: IC50 (nM)
Please give a number only; it is taken to be in nM.

Provide IC50, recorded with human erythroid progenitors, of CC[C@@]1(O)C(=O)OCc2c1cc1n(c2=O)Cc2c-1nc1cc(F)c(C)cc1c2CNC(=O)OCCO
1.32

====

System: SK-BR-3 (breast cancer)
Experiment: In vitro cytotoxicity of camptothecin analogues (CellTiter-Glo)
Format: cell-based
Details: Homo sapiens, SK-BR-3, 96 h, read-out: pIC50 SKBR-3 (converted)
quantity-kind: log10 IC50 (log10 of the value in nM)
Transform log10 | Measure IC50 | Unit nM

Reference set (3 entries):
| molecule | assay-system | log10 IC50 |
| --- | --- | --- |
| CC[C@@]1(O)C(=O)OCc2c1cc1n(c2=O)Cc2c-1nc1cc(F)c(C)cc1c2CNS(C)(=O)=O | SK-BR-3 (breast cancer) | 0.05 |
| CC[C@@]1(O)C(=O)OCc2c1cc1n(c2=O)Cc2c-1nc1cc(F)c(N)cc1c2CN=[N+]=[N-] | SK-BR-3 (breast cancer) | 0.51 |
| CC[C@@]1(O)C(=O)OCc2c1cc1n(c2=O)Cc2c-1nc1cc(F)c(C)cc1c2CNS(N)(=O)=O | SK-BR-3 (breast cancer) | 0.02 |

Answer with the recorded log10 IC50 of CC[C@@]1(O)C(=O)OCc2c1cc1n(c2=O)Cc2c-1nc1cc(F)c(C)cc1c2CNS(=O)(=O)c1ccc(N)cc1 only.
0.52

Answer with the recorded log10 IC50 of CC[C@@]1(O)C(=O)OCc2c1cc1n(c2=O)Cc2c-1nc1cc(F)c(OC)cc1c2CNC(=O)NCc1ccc(N)cc1 only.
1.09

====

System: SK-BR-3 (breast cancer)
Assay: In vitro cytotoxicity of camptothecin analogues (CellTiter-Glo)
Type: cell-based
Conditions: Homo sapiens, SK-BR-3, 96 h, read-out: pIC50 SKBR-3 (converted)
Consider the cut-off 1 nM. If the recorded IC50 is strictly smaller, the label is Met; if not, the label is Not met.

| compound | label-class |
| --- | --- |
| CC[C@@]1(O)C(=O)OCc2c1cc1n(c2=O)Cc2c-1nc1cc(F)c(C)cc1c2CN1CCO[C@@H](CO)C1 [Compound 113] | Not met |
| CC[C@@]1(O)C(=O)OCc2c1cc1n(c2=O)Cc2c-1nc1cc(F)c(C)cc1c2CNS(=O)(=O)c1ccccc1 [Compound 125] | Not met |
| CC[C@@]1(O)C(=O)OCc2c1cc1n(c2=O)Cc2c-1nc1cc(F)c(C)cc1c2CN1CCSCC1CO (stereo partly drawn) [Compound 114] | Met |
| CC[C@@]1(O)C(=O)OCc2c1cc1n(c2=O)Cc2c-1nc1cc(F)c(C)cc1c2CN1CCN(c2ccc(N)cc2)CC1 [Compound 108] | Not met |
| CC[C@@]1(O)C(=O)OCc2c1cc1n(c2=O)Cc2c-1nc1cc(F)c(OC)cc1c2CNS(=O)(=O)c1ccc(N)cc1 [Compound 128] | Not met |

Please examine the following record next.
Please let me know if CC[C@@]1(O)C(=O)OCc2c1cc1n(c2=O)Cc2c-1nc1cc(F)c(C)cc1c2CN1C2CCC1(CO)CC2 [Compound 121] shows IC50 below 1 nM.
Met
